# System: S. aureus 272123 (MRSA)
# assay-explanation: Antibacterial assay, MIC in 96-well plates at different pH
# Format: cell-based
# run-conditions: pH 6, after one day, read-out: MIC
value-kind: MIC (µM)
Number only, in µM; omit the unit.

Example cases with answers are listed next.
{"compound": "Cc1c(C)c(C)[c-](C)c1C.[Cl][Rh+][O]c1cccc2cccnc12 [[RhCp*(8HQH−1)Cl]]", "study-system": "S. aureus 272123 (MRSA)", "recorded-number": 12.5}
{"compound": "Cc1c(C)c(C)[c-](C)c1C.Clc1ccc(COC(Cn2ccnc2)c2ccc(Cl)cc2Cl)cc1.[Cl-].[Rh+2][O]c1cccc2cccnc12 (racemic) [[RhCp*(8HQH−1)Cl] +econ]", "study-system": "S. aureus 272123 (MRSA)", "recorded-number": 6.25}
{"compound": "Cc1c(C)c(C)[c-](C)c1C.Cn1ccnc1.[O-]c1cccc2cccnc12.[Rh+3] [[RhCp*(8HQH−1)(mim)]^+]", "study-system": "S. aureus 272123 (MRSA)", "recorded-number": 25}

Query compound follows.
Please indicate MIC recorded for Cc1c(C)c(C)[c-](C)c1C.[Cl-].[Rh+2][O]c1cccc2cccnc12.c1ccncc1 [[RhCp*(8HQH−1)Cl] +Py]
50

* * *

Overview of recorded MIC for various molecules
# System: S. aureus 272123 (MRSA)
# assay-explanation: Antibacterial assay, MIC in 96-well plates at different pH
# Assay type: cell-based
# run-conditions: pH 5, after one day, read-out: MIC
# Description: The antibacterial effect was studied in two Gram-positive and in two Gram-negative strains. The Gram-positive S. aureus ATCC 25923 (ATCC, Manassas, VA, USA) is a methicillin-susceptible reference bacterial strain, while S. aureus 272123 is a clinical isolate and resistant to methicillin and ofloxacin (MRSA), which was given by Prof. […] The minimum inhibitory concentrations (MICs) of the compounds were determined in 96-well plates based on the Clinical and Laboratory Standard Institute guidelines. […]

{"molecule": "Cc1c(C)c(C)[c-](C)c1C.Cn1ccnc1.[Rh+3].c1cnc2c(c1)ccc1cccnc12 [[RhCp*(phen)(mim)]^2+]", "MIC": "> 100 µM"}
{"molecule": "Cc1c(C)c(C)[c-](C)c1C.[Rh+3].c1ccncc1.c1cnc2c(c1)ccc1cccnc12 [[RhCp*(phen)(Py)]^2+]", "MIC": "> 100 µM"}

Query molecule follows.
Please indicate MIC recorded for Cc1c(C)c(C)[c-](C)c1C.[Cl-].[Cl-].[Rh+3].c1cnc2c(c1)ccc1cccnc12 [[RhCp*(phen)Cl]Cl]
> 100 µM

* * *

# Test system: S. aureus 272123 (MRSA)
# assay-explanation: Antibacterial assay, MIC in 96-well plates at different pH
# Type: cell-based
# run-conditions: pH 8, after one day, read-out: MIC
value-kind: MIC

{"compound": "Cc1c(C)c(C)[c-](C)c1C.Cn1ccnc1.[Rh+3].c1cnc2c(c1)ccc1cccnc12 [[RhCp*(phen)(mim)]^2+]", "result": "> 100 µM"}
{"compound": "Cc1c(C)c(C)[c-](C)c1C.[Rh+3].c1ccncc1.c1cnc2c(c1)ccc1cccnc12 [[RhCp*(phen)(Py)]^2+]", "result": "> 100 µM"}

Please indicate MIC recorded for Cc1c(C)c(C)[c-](C)c1C.[Cl-].[Cl-].[Rh+3].c1cnc2c(c1)ccc1cccnc12 [[RhCp*(phen)Cl]Cl]
> 100 µM

Where do these numbers come from? They come from paper PMC9964319.
